Quick list: IC50 per entry.
target: wt human JAK1, catalytic site (Homo sapiens, UniProt P23458); construct: wt human JAK1, catalytic site; experiment: HTRF KinEASE assay, JAK1; conditions: 2.5 μM ATP; read-out: IC50, Activity Toward JAK1
Sequence (P23458 875-1153 limits assumed): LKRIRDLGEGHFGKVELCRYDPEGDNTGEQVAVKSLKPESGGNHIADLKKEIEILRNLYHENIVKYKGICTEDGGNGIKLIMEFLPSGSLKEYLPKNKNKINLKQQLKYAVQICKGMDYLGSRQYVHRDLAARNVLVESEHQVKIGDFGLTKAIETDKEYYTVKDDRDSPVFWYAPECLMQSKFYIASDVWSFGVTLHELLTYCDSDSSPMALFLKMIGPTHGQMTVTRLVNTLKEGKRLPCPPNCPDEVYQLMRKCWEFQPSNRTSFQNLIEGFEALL
READOUT_TYPE: IC50

{"columns": ["MOLECULE", "REPORTED_VALUE"],
 "data": [
  ["CCc1cnncc1-c1ccc(Nc2cn(-c3c(Cl)cccc3Cl)nc2C(N)=O)cc1", "10 to 100 nM"],
  ["CN1CCC(N(C)C(=O)c2ccc(Nc3cn(-c4c(Cl)cccc4Cl)nc3C(N)=O)cc2)CC1", "100 to 1000 nM"],
  ["NC(=O)c1nn(-c2c(F)cccc2F)cc1Nc1nc2ccccc2[nH]1", "100 to 1000 nM"],
  ["Cc1nnnn1-c1ccc(Nc2nn(-c3c(Cl)cccc3Cl)nc2C(N)=O)nc1", "10 to 100 nM"],
  ["CN1CCC(NC(=O)c2ccc(Nc3cn(-c4c(Cl)cccc4Cl)nc3C(N)=O)cc2)CC1", "10 to 100 nM"],
  ["CN1CCC(Oc2ccc(Nc3nn(-c4c(Cl)cccc4Cl)nc3C(N)=O)cc2)CC1", "< 10 nM"],
  ["CCn1cnnc1-c1ccc(Nc2cn(-c3c(F)cccc3Cl)nc2C(N)=O)cc1", "10 to 100 nM"],
  ["Cc1csc2nnc(-c3ccc(Nc4cn(-c5c(Cl)cccc5Cl)nc4C(N)=O)cn3)n12", "100 to 1000 nM"],
  ["NC(=O)c1nn(-c2c(Cl)cccc2Cl)cc1Nc1ccc(CN2CCS(=O)(=O)CC2)nc1", "100 to 1000 nM"],
  ["Cc1nc2cc(Nc3cn(-c4c(F)cccc4Cl)nc3C(N)=O)ccc2n1C", "100 to 1000 nM"],
  ["NC(=O)c1nn(-c2c(Cl)cccc2Cl)cc1Nc1ccc(C(=O)N2CCS(=O)(=O)CC2)cc1", "< 10 nM"],
  ["CC(C)Cn1cnnc1-c1ccc(Nc2cn(-c3c(Cl)cccc3Cl)nc2C(N)=O)cc1", "10 to 100 nM"],
  ["NC(=O)c1nn(-c2c(Cl)cccc2Cl)cc1Nc1ccc(C(=O)N2CC[C@H](N)C2)cc1", "10 to 100 nM"],
  ["NC(=O)c1nn(-c2c(Cl)cccc2Cl)cc1Nc1ccc(C(=O)N2CCC(N3CCCC3)C2)cc1 (centres unmarked)", "100 to 1000 nM"],
  ["Cc1cnncc1-c1ccc(Nc2cn(-c3c(Cl)cccc3Cl)nc2C(N)=O)cn1", "100 to 1000 nM"],
  ["NC(=O)c1nn(-c2c(Cl)cccc2Cl)cc1Nc1ccc(C(=O)N2CCN(C3CC3)CC2)cc1", "10 to 100 nM"],
  ["CN1CCC(Oc2ccc(Nc3cn(-c4c(Cl)cccc4Cl)nc3C(N)=O)cc2)CC1", "100 to 1000 nM"],
  ["NC(=O)c1nn(-c2c(Cl)cccc2Cl)cc1Nc1ccc(-c2nncn2C2CC2)cc1", "10 to 100 nM"],
  ["NC(=O)c1nn(-c2c(Cl)cccc2Cl)cc1Nc1ccc(C(=O)N2CCC(F)(F)C2)cc1", "10 to 100 nM"],
  ["Cc1cc2nnc(-c3ccc(Nc4cn(-c5c(Cl)cccc5Cl)nc4C(N)=O)cn3)n2c(C)n1", "100 to 1000 nM"],
  ["CCc1c(C)nn(-c2ccc(Nc3cn(-c4c(Cl)cccc4Cl)nc3C(N)=O)cc2)c1C", "100 to 1000 nM"],
  ["CN1CCC(N(C)C(=O)c2ccc(Nc3cn(-c4c(Cl)cc(F)cc4Cl)nc3C(N)=O)cc2)CC1", "10 to 100 nM"],
  ["COCc1nc(C(F)(F)F)nn1-c1ccc(Nc2cn(-c3c(Cl)cccc3Cl)nc2C(N)=O)cc1", "100 to 1000 nM"],
  ["CC(C)(C)C(=O)c1ccc(Nc2cn(-c3c(Cl)cccc3Cl)nc2C(N)=O)cc1", "100 to 1000 nM"],
  ["COc1ccc(Cn2cc(Nc3cn(-c4c(Cl)cccc4Cl)nc3C(N)=O)cn2)cc1", "100 to 1000 nM"],
  ["NC(=O)c1nn(-c2c(Cl)cc(F)cc2Cl)nc1Nc1ccc(C(=O)N2CC[C@@H](F)C2)cc1", "< 10 nM"],
  ["CCc1cnnn1-c1ccc(Nc2nn(-c3c(Cl)cccc3Cl)nc2C(N)=O)cc1", "< 10 nM"],
  ["NC(=O)c1nn(-c2c(Cl)cccc2Cl)nc1Nc1ccc(C(=O)N2CC[C@@H](F)C2)cc1", "10 to 100 nM"],
  ["CN1CCN(C(=O)c2ccc(Nc3nn(-c4c(Cl)cccc4Cl)nc3C(N)=O)nc2)CC1", "100 to 1000 nM"],
  ["N#Cc1cccc(F)c1-n1cc(Nc2ccc(C(=O)N3CCS(=O)(=O)CC3)cc2)c(C(N)=O)n1", "< 10 nM"],
  ["Cn1cc(C(F)(F)F)nc1-c1ccc(Nc2cn(-c3c(F)cccc3F)nc2C(N)=O)cc1", "10 to 100 nM"],
  ["NC(=O)c1nn(-c2c(F)cccc2Cl)cc1Nc1ccc(C(=O)NC2CCCNC2)cc1 (centres unmarked)", "10 to 100 nM"]
]}
